Quick reference for folding stability dG unfold among some sequences
- assay comment: folding stability dG unfold (combined trypsin and chymotrypsin); higher = more stable
measurement label: folding stability dG unfold (kcal/mol)

[[record]]
polymer_sequence = "MEKVLILAKIKLKGPDGEEAEIDFAVEISPEEATPELLKKVREEAEEIAEALKEKGYEVELEVEVVKLGEES [r1_221_TrMRF]"
unit_tag = "kcal/mol"
cmp = "="
test_result = 3.25

[[record]]
polymer_sequence = "SAGGSAGGSAWHIRIHPGNEPQWIPIDDLRDKGLPPEELAEELQKKFGFKVEIVDPGWIRVKSAGGSAGGSA [r18_7_TrROS]"
unit_tag = "kcal/mol"
cmp = "="
test_result = -0.348

[[record]]
polymer_sequence = "SAGGSAGGSAGKTIMIRDPEALKKLPENQKIRIPDGKPFKIKKVEYVEENGWHRFTIKPESAGGSAGGSAGG [r11_316_TrROS]"
unit_tag = "kcal/mol"
cmp = "<"
test_result = -1

[[record]]
polymer_sequence = "SKKTITITIEDKETGLKVEITINEDGTITIKVYDKDGKLVAEVKAKIKLVKDKDGKIRLVIEEIEIKVKPSA [r9_434_TrROS_Hall]"
unit_tag = "kcal/mol"
cmp = "="
test_result = 3.61

[[record]]
polymer_sequence = "SAGGSAGGSAKTITITVKPEDMTEEELKEKIAEELGIDPEEIEIVKVEKLPNGEVKVTIKIKSAGGSAGGSA [r18_118_TrROS_Hall]"
unit_tag = "kcal/mol"
cmp = "="
test_result = 3.08

[[record]]
polymer_sequence = "SSVPADAAPVTVTETVTVTLPVDTATGGVPEERVAAAREAAAARGFTEFTVTTDPAAGTVTVTVTRTSRVSA [r9_201_JUSTAS]"
unit_tag = "kcal/mol"
cmp = "="
test_result = 1.11

[[record]]
polymer_sequence = "SAGGSMSESEVVEVTVGGKPVTITVHREDNRYSAEVTLPPGVRVVLPFGGPESPEKAVEEAVRALESAGGSA [r2_92_JUSTAS]"
unit_tag = "kcal/mol"
cmp = "="
test_result = 0.425

[[record]]
polymer_sequence = "SAGGDKLEDLPLEDVEVLRVEVIPLPDGGVLVVFEFKVSDEEGPERLVRVVVLVENDEARVFVEPLGSAGGS [r16_469_TrMRF]"
unit_tag = "kcal/mol"
cmp = "="
test_result = 2.91

[[record]]
polymer_sequence = "SAGGSAGGSAGGPKLVLKIKTEIKIEKKLEFDPETGELTEEIEIEIKIEIELEPLPEGLSAGGSAGGSAGGS [r10_376_TrROS_Hall]"
unit_tag = "kcal/mol"
cmp = "="
test_result = 2.83

[[record]]
polymer_sequence = "SMLVSVTFPLTLEPEEGDHTVRIYATAPDGSSLGEVTAPVKAVGDKVEFEVTATFPLPEGAVIERIETEPSA [r9_292_TrMRF]"
unit_tag = "kcal/mol"
cmp = "="
test_result = 0.869

[[record]]
polymer_sequence = "SAGGSAGGSAAKIELEDGTLRITLTRTVRDPATGETHTETLTLEIKLPPAPPPVVVVSPEDLSAGGSAGGSA [r18_501_TrROS_Hall]"
unit_tag = "kcal/mol"
cmp = "="
test_result = 2.88

[[record]]
polymer_sequence = "SAGGSAGGSDEEVEVTLYPVDPSAPDDTVYYAEVTFPNGLVARYRFRKKDGKVEGELVEVKPASAGGSAGGS [r12_1049_TrMRF]"
unit_tag = "kcal/mol"
cmp = "="
test_result = 1.91

[[record]]
polymer_sequence = "SAGGPDWQTIRITFWFDSPEDAEEEVRNIARTMGLPPEGIKVEITDFEPREVNGKNYYMVEAEITIPSAGGS [r16_240_TrROS]"
unit_tag = "kcal/mol"
cmp = "="
test_result = 3.93

[[record]]
polymer_sequence = "SAGGSPERSAEELAEELAERIRELLREEAASFELPLHVHIVVPDPEGRRREFDVEVHVRVEVPEDARSAGGS [r16_550_TrMRF]"
unit_tag = "kcal/mol"
cmp = "="
test_result = 1.05

